For each record, write down the corresponding GI50.
Test system: SW-620
Test: NCI tumour cell line growth inhibition, 48 h
Activity calls are given as the source filed them. Rule as the data show it: active = GI50 up to about 1.1 µM and inactive = higher.

(Q) # returns recorded GI50 (system: SW-620) for `Cc1cc(C)nc(NS(=O)(=O)c2ccc(Nc3nncc(=O)n3N)cc2)n1`
(A) 16.2 µM (inactive)

(Q) // query: `CCO/C([O-])=C(\C(=O)c1ccccc1)[n+]1c(C)n(C)c2ccccc21`
(A) > 100 µM (inactive)

(Q) // query: `COc1cc(/C=C/C(=O)Oc2ccc(NC(C)=O)cc2)ccc1C(=O)O/C=C/c1ccccc1`
(A) > 100 µM (inactive)

(Q) // query: C=CCO[C@H]1CC[C@@]2(C)C(CC[C@]3(C)C2CC=C2[C@@H]4[C@@H](C)C(C)CC[C@]4(C(=O)O)CCC23C)C1(C)C (stereo not given in full)
(A) 18.5 µM (inactive)

(Q) // query: `CC(=O)C(=[N+]=[N-])C(=O)NCC#N`
(A) > 10 µM (inactive)

* * *

Test system: NCI/ADR-RES
Experiment: NCI tumour cell line growth inhibition, 48 h
The source made the active and inactive calls. No stated cut-off is given here; in the data, active = GI50 up to about 1.1 µM and inactive = higher.
Returns: one label drawn from active, inactive

(Q) I'd appreciate the recorded outcome for C/C=C\C(CC(=O)O)CN1CCC2=C(C1)C(S(=O)(=O)C(F)(F)F)c1ccccc12 (centres undefined) from this test.
(A) inactive

(Q) // query: `CS(=O)(=O)O.[Ag]`
(A) inactive

(Q) // query: `CO[C@H]1[C@H](O)[C@H](O[C@H]2CC[C@@]3(C)[C@H](CC[C@@H]4[C@@H]3CC[C@]3(C)[C@@H](C5=CC(=O)OC5)CC[C@]43O)C2)O[C@@H](C)[C@@H]1O`
(A) active

(Q) // query: `COc1cc(/C=C/c2nc(N)nnc2C)cc(OC)c1OC`
(A) inactive

* * *

Tested on: KM12
Experiment: NCI tumour cell line growth inhibition, 48 h
Activity calls are given as the source filed them. Rule as the data show it: active = GI50 up to about 1.1 µM and inactive = higher.
Returns: one label drawn from active, inactive

(Q) I'd appreciate the recorded outcome for `OC[C@H]1O[C@@H](n2cnc3cncnc32)[C@H](O)[C@@H]1O` from this test.
(A) active

(Q) // query: `CO[C@H]1[C@H](O)[C@H](O[C@H]2CC[C@@]3(C)[C@H](CC[C@@H]4[C@@H]3CC[C@]3(C)[C@@H](C5=CC(=O)OC5)CC[C@]43O)C2)O[C@@H](C)[C@@H]1O`
(A) active

(Q) // query: CC(C)(C)[Si](C)(C)OCC1OC(n2ccc(=O)[nH]c2=O)C(O[Si](C)(C)C(C)(C)C)[C@@]12O[C@H]2C(N)=O (some centres undefined)
(A) inactive

(Q) // query: CC(O)c1cc2c(s1)C(=O)c1sccc1C2=O (centres undefined)
(A) active

* * *

Tested on: SNB-78
Test: NCI tumour cell line growth inhibition, 48 h
The source made the active and inactive calls. Cut-off read from the data, not from the text of the source: active = GI50 up to about 1.1 µM and inactive = higher.
Returns: one label drawn from 1 (yes) = active, 0 (no) = inactive

(Q) I'd appreciate the recorded outcome for CCCCCCCCCCCCCCCCCC(=O)OCC(CN(C)CCN(C)C)OC(=O)CCCCCCCCCCCCCCCCC (stereo not given) from this test.
(A) 0 (no)

(Q) // query: `CO[C@H]1[C@H](O)[C@H](O[C@H]2CC[C@@]3(C)[C@H](CC[C@@H]4[C@@H]3CC[C@]3(C)[C@@H](C5=CC(=O)OC5)CC[C@]43O)C2)O[C@@H](C)[C@@H]1O`
(A) 1 (yes)

(Q) // query: `O=C(/C=C/c1ccccc1O)c1ccccc1Cl`
(A) 0 (no)

(Q) // query: `Cc1ccc(S(=O)(=O)OCOS(=O)(=O)c2ccc(C)cc2)cc1`
(A) 0 (no)

(Q) // query: `COc1cc2c(cc1OC)C1Cc3cc(OC)c(OC)cc3C(C2)N1C`
(A) 0 (no)
